Would you mind telling me the reported inhibition of each entry?
# measurement_target: CDK7/Cyclin H/MNAT1 (Homo sapiens, UniProt P51946+P50613+P51948)
# method_notes: Inhibition of human His-tagged CDK7/cyclin H/MNAT1 expressed in baculovirus infected insect cells at 25 nM preincubated for 10 mins followed by substrate and ATP addition and measured after 60 mins by ADP-Glo kinase assay relative to control
# run_parameters: Insect cell, time 70.0 min
Give bare numbers, in %.

// solved cases for inhibition follow
> print(dat)
                                   compound  experimental.result
1  CP(C)(=O)c1cccc2c(-c3nc(NC4CC5(CCNC5)C4)nc4ccsc34)c[nH]c12 (stereo not drawn)                   23
2  CC1(CNc2nc(-c3c[nH]c4c(P(C)(C)=O)cccc34)c3sccc3n2)CNC1                   47
3  CP(C)(=O)c1cccc2c(-c3nc(NC[C@H]4CCCN4)nc4ccsc34)c[nH]c12                   19

Fill in inhibition for each of the 2 compounds listed.
1. CP(C)(=O)c1cccc2c(-c3nc(N[C@H]4CC[C@H](N)CC4)nc4ccsc34)c[nH]c12
2. CP(C)(=O)c1cccc2c(-c3nc(NCC4CCNC4)nc4ccsc34)c[nH]c12 (stereo not drawn)

OUTPUT:
1: 27; 2: 53
